# credit: patent US8791132B2

- TESTED_ON: human recombinant adrenergic α2B receptor (Homo sapiens, UniProt P18089)
- Construct: expressed in transfected cells; host or cells: CHO-K1
- Sequence (P18089 whole entry): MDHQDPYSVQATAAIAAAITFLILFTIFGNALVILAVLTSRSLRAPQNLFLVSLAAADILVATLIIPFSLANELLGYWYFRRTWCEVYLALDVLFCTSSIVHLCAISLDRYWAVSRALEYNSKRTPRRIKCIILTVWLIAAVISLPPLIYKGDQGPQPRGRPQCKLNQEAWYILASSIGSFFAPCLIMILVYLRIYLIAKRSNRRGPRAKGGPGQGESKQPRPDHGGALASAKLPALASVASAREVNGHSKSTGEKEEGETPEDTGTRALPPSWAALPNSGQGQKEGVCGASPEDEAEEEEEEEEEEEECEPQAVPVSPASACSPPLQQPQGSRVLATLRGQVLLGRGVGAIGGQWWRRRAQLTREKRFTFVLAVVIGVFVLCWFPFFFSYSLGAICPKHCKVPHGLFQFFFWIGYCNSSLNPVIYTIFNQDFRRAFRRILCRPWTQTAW
- ASSAY_TEXT: Radioligand binding, adrenergic α2B ([3H]Rauwolscine)
- ASSAY_CONDITIONS: compound at 0.1 μM; [3H]Rauwolscine; repeat assays, each datapoint shown; read-out: Percentage inhibition of ligand binding, Adrenergic α2B
TEST_READOUT: inhibition at 0.1 µM
Quick note: unit goes after the number.

Worked examples follow.
1) CCN1CCc2c(c3cc(C)ccc3n2CCc2ccncc2)C1 = 60%
2) Cc1ccc2c(c1)c1c(n2CC(O)c2ccncc2)CCN(C)C1 (single isomer, unassigned) [3a] = 62%
3) Cc1ccc2c(c1)c1c(n2CC(C)(O)c2ccncc2)CCN(C)C1 (stereo not drawn) = 95%
4) CN1CCc2c(c3cc(Cl)ccc3n2CCC(=O)OCC2CCCCC2)C1 = 66%
5) CCC(O)(Cn1c2c(c3cc(C)ccc31)CN(C)CC2)c1ccncc1 (stereo not drawn) [35a] = 62%
6) CN1CCc2c(c3cccc(Cl)c3n2CC(C)(O)c2ccncc2)C1 (stereo not drawn) = 86%
7) CN1CCc2c(c3cc(Cl)ccc3n2CCC(=O)OC2CCCC2)C1 = 90%
8) Cc1ccc2c(c1)c1c(n2CC(C)(O)c2ccc(F)cc2)CCN(C)C1 (stereo not drawn) = 91%

Need inhibition at 0.1 µM, item "CN1CCc2c(c3cc(Cl)ccc3n2CCc2cccnc2)C1"
93%

----------
- TESTED_ON: human recombinant adrenergic α2B receptor (Homo sapiens, UniProt P18089)
- Construct: expressed in transfected cells; host or cells: CHO-K1
- ASSAY_TEXT: Radioligand binding, adrenergic α2B ([3H]Rauwolscine)
- ASSAY_CONDITIONS: 0.03 μM compound; 0.03 µM
Record true (1) whenever Percentage inhibition of ligand binding, Adrenergic α2B is at 30% or higher; record false (0) when lower.

1. Cc1ccc2c(c1)c1c(n2CC(N)c2ccc(F)cc2)CCN(C)C1 (single isomer, unassigned) [II-11a] = true (1)
2. OCCN1CCc2c(c3cc(Cl)ccc3n2CC(O)c2cccnc2)C1 (single isomer, unassigned) [II-94b] = false (0)
3. Cc1ccc2c(c1)c1c(n2C(C)C(O)c2ccncc2)CCN(C)C1 (centres unmarked) [II-98b] = false (0)
4. Cc1cnc2c(c1)c1c(n2CC(O)c2ccc(C)nc2)CCN(C)C1 (single isomer, unassigned) [II-100a] = false (0)
5. CC(=O)NC(Cn1c2c(c3cc(C)ccc31)CN(C)CC2)c1ccncc1 (single isomer, unassigned) [II-1b] = true (1)
6. Cc1ccc2c(c1)c1c(n2CC(C)(c2cnccn2)N(C)C)CCN2CCCC12 (single isomer, unassigned) [II-6b] = true (1)

Quick check: does CC(=O)NC(Cn1c2c(c3cc(C)ccc31)CN(C)CC2)c1ccncc1 (single isomer, unassigned) [II-1a] have Percentage inhibition of ligand binding, Adrenergic α2B greater than or equal to 30%?
false (0)

Further, for Cc1cnc2c(c1)c1c(n2CC(O)c2ccc(C)nc2)CCN(C)C1 (single isomer, unassigned) [II-100b] ?
false (0)

----------
# inhibition at 0.03 µM annotations
- TESTED_ON: human recombinant adrenergic α2B receptor (Homo sapiens, UniProt P18089)
- Construct: expressed in transfected cells; host or cells: CHO-K1
- ASSAY_TEXT: Radioligand binding, adrenergic α2B ([3H]Rauwolscine)
- ASSAY_CONDITIONS: read-out: Percentage inhibition of ligand binding, Adrenergic α2B (0.03 μM), compound at 0.03 μM; [3H]Rauwolscine; repeat datapoints each shown
Return type: number; implicit unit %.

1) Cc1ccc2c(c1)c1c(n2CC(O)c2ccncc2C)CCN(C)C1 (single isomer, unassigned) [133b] = 87
2) Cc1ccc2c(c1)c1c(n2CC(C)(O)c2ccc(C)nc2)CCN2CCCC12 (single isomer, unassigned) [II-128b] = 102
3) Cc1ccc2c(c1)c1c(n2CC(C)(N)c2cccnc2)CCN(C)C1 (single isomer, unassigned) [149a] = 16
4) Cc1cnc2c(c1)c1c(n2CC(O)c2ccc(C#N)cc2)CCNC1 (centres unmarked) [II-116] = 43
5) Cc1ccc2c(c1)c1c(n2CC(O)c2cnn(C)c2)CCN(C)C1 (single isomer, unassigned) [131b] = 53

Need inhibition at 0.03 µM, item Cc1ccc2c(c1)c1c(n2CC(N=[N+]=[N-])c2ccc(C(N)=O)nc2)CCN(C)C1 (centres unmarked) [V-22]
90

Further, for Cc1ccc(CCn2c3c(c4cc(C)ccc42)CN(C)CC3)cc1 [compound 180] ?
91

Further, for Cc1ccc2c(c1)c1c(n2CC(C)(O)c2cccnc2)CNCC1 (single isomer, unassigned) [128a] ?
97

----------
- TESTED_ON: rat adrenergic α1B receptor (Rattus norvegicus)
- Construct: rat adrenergic α1B receptor obtained from Wistar Rat liver; from tissue; host or cells: Wistar rat liver
- Sequence (P15823 whole entry): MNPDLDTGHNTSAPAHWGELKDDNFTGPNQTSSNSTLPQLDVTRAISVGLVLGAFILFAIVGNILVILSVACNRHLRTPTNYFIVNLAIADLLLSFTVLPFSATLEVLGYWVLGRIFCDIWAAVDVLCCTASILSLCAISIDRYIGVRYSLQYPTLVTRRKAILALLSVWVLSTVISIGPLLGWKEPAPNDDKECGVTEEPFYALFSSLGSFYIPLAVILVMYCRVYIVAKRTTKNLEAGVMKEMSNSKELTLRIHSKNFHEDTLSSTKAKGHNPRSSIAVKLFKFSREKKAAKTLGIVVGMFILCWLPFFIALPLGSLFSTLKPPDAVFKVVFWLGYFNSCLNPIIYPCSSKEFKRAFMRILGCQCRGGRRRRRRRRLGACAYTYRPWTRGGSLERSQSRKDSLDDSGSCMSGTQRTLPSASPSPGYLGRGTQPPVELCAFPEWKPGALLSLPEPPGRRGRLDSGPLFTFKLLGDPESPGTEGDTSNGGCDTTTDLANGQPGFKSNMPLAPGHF
- ASSAY_TEXT: Radioligand binding, adrenergic α1B ([3H]Prazosin)
- ASSAY_CONDITIONS: 0.1 μM compound; read-out: Percentage inhibition of ligand binding, Adrenergic α1B
TEST_READOUT: inhibition at 0.1 µM (%)
Return type: number; implicit unit %.

1. Cc1ccc2c(c1)c1c(n2C#Cc2ccc(S(N)(=O)=O)cc2)CCN(C)C1 = 98
2. COc1ccc(C#Cn2c3c(c4cc(Cl)ccc42)CCN(C)CC3)cc1F = 53
3. Cc1ccc2c(c1)c1c(n2CCc2ccc3c(c2)CCCC3)CCN(C)C1 = 41
4. C=CCC1(C)CN(C)Cc2c1n(/C=C(\C)c1ccc(F)cc1)c1ccc(C)cc21 (stereo not drawn) = 28
5. COc1ccc(/C(C)=C/n2c3c(c4cc(C)ccc42)CN(C)CC3)cn1 = 63
6. C/C(=C/n1c2c(c3cc(C)ccc31)CN(C)CC2)c1ccc2ccn(C)c2c1 = 83

Need inhibition at 0.1 µM, item "C/C(=C\n1c2c(c3cc(C)ccc31)CN(C)CC2)c1ccncc1"
74

Further, for "C/C(=C/n1c2c(c3cc(C)ccc31)CN(C)CC2)c1cccc2[nH]ncc12" ?
90

Further, for "C/C(=C\n1c2c(c3cc(Cl)ccc31)CCN(C)CC2)c1cccnc1" ?
78

Further, for "C/C(=C\n1c2c(c3cc(C)ccc31)CN(C)CC2)c1cccnc1" ?
37

----------
- TESTED_ON: human recombinant adrenergic α2B receptor (Homo sapiens, UniProt P18089)
- Construct: expressed in transfected cells; host or cells: CHO-K1
- ASSAY_TEXT: Radioligand binding, adrenergic α2B ([3H]Rauwolscine)
- ASSAY_CONDITIONS: read-out: Ki α2B
pKi: −log10 of the molar value.
Record label 1 whenever pKi is at 8 or higher; record label 0 when lower.

Recorded results for 5 molecules are shown here.
1) Cc1ccc2c(c1)c1c(n2CC(N=[N+]=[N-])c2ccncc2)CCN(C)C1 (racemic) = label 1
2) Cc1ccc2c(c1)c1c(n2CC(OC(=O)c2ccncc2)c2ccncc2)CCN(C)C1 (stereo not drawn) = label 1
3) Cc1ccc2c(c1)c1c(n2C2=C(c3ccncc3)CCC2)CCN(C)C1 = label 0
4) Cc1ccc2c(c1)c1c(n2CC(N)c2ccncc2)CCN(C)C1 (single isomer, unassigned) [27a] = label 1
5) CC(O)(Cn1c2c(c3cc(Cl)cnc31)C1CCCN1CC2)c1cccnc1 (single isomer, unassigned) [IV-210a] = label 1

Now for a further molecule.
Quick check: does Cc1ccc2c(c1)c1c(n2CC(OC(=O)N(C)C)c2ccncc2)CCN(C)C1 (single isomer, unassigned) [141b] have pKi greater than or equal to 8?
label 1

----------
- TESTED_ON: human recombinant adrenergic α2B receptor (Homo sapiens, UniProt P18089)
- Construct: expressed in transfected cells; host or cells: CHO-K1
- ASSAY_TEXT: Radioligand binding, adrenergic α2B ([3H]Rauwolscine)
- ASSAY_CONDITIONS: 0.03 μM compound; read-out: Percentage inhibition of ligand binding, Adrenergic α2B
- Procedure: To evaluate in radioligand binding assays the activity of compounds of the invention, human recombinant adrenergic α2B receptor expressed in Chinese hamster ovary (CHO) K1 cells (Uhlen, S. et al, Eur. J. Pharmacol. 343(1):93, 1998) in a modified Tris-HCl buffer (50 mM Tris-HCl, pH 7.4, 12.5 mM MgCl2, 1 mM EDTA, 0.2% BSA) was used. […] Receptor proteins were filtered and washed, the filters were then counted to determine [3H]Rauwolscine specifically bound. […]
TEST_READOUT: inhibition at 0.03 µM (%)
Return type: number; implicit unit %.

1) OCc1ccc2c(c1)c1c(n2CC(O)c2ccncc2)CCNC1 (stereo not shown) = -9
2) Cc1ccc2c(c1)c1c(n2CC(O)c2ccncc2)CCN(CC(=O)O)C1 (stereo not shown) = 25
3) Cc1ccc2c(c1)c1c(n2CC(O)c2ccncc2)CCN(CCS(=O)(=O)O)C1 (stereo not shown) = 24
4) Cc1ccc2c(c1)c1c(n2CC(NC(C)C)c2ccncc2)CCN(C)C1 (stereo not shown) = 47
5) Cc1ccc2c(c1)c1c(n2CC(NC2CCCC2)c2ccncc2)CCN(C)C1 (stereo not shown) = 78

Need inhibition at 0.03 µM, item CN1CCc2c(c3cc(CO)ccc3n2CC(O)c2ccncc2)C1 (stereo not shown)
54

Further, for CN1CCc2c(c3cccnc3n2CC(O)c2ccncc2)C1 (stereo not shown) ?
-9

Further, for Cc1ccc2c(c1)c1c(n2CC(O)c2ccncc2)C(C)N(C)CC1 (stereo not shown) ?
33

Further, for Cc1ccc2c(c1)c1c(n2CC(C)(O)c2ccc(O)nc2)CCN(C)C1 (stereo not shown) ?
9

Further, for CN1CCc2c(c3cc(C(C)(C)C)ccc3n2CC(O)c2ccncc2)C1 (stereo not shown) ?
17
